Entries and their bioavailability values follow.
experiment: Oral bioavailability in C57BL/6 mouse at 2 mg/kg; assay type: ADME, organism-based; details: in vivo
Respond with the bare value in %.

# annotated cases, reported bioavailability shown
O=C(CCc1noc2c1CCc1cc(O)ccc1-2)Nc1ccccc1C(=O)O: 8.2
O=C(CCc1cn2c(n1)sc1cc(O)ccc12)NC1=C(C(=O)O)CCCC1: 25
O=C(CCc1noc2c1CCc1cc(O)ccc1-2)NC1=C(C(=O)O)CCC1: 7.5

Entry Cn1c(=O)c2cc(O)ccc2c2ccc(CCC(=O)Nc3ccccc3C(=O)O)cc21 has what bioavailability?
10

Same question for O=C(CCc1nnn2c1ccc1cc(O)ccc12)Nc1ccccc1C(=O)O please.
6

Same question for O=C(CCc1cnn2c1CCc1cc(O)ccc1-2)Nc1ccccc1C(=O)O please.
17

Same question for O=C(CCc1[nH]nc2c1CCc1cc(O)ccc1-2)Nc1ccccc1C(=O)O please.
1.4

Same question for O=C(CCc1ccc2c(ccc3[nH]ncc32)c1)Nc1ccccc1C(=O)O please.
24

* * *

Entries and their Vd values follow.
assay: Volume of distribution at steady state in C57BL/6 mouse at 1 mg/kg, iv or 2 mg/kg, po; type: ADME, organism-based; conditions: in vivo, read-out: Vdss
Respond with the bare value in L/kg.

Entry O=C(CCc1[nH]nc2c1CCc1cc(O)ccc1-2)Nc1ccccc1C(=O)O has what Vd?
0.44

Same question for O=C(CCc1noc2c1CCc1cc(O)ccc1-2)Nc1ccccc1C(=O)O please.
1.1

Same question for O=C(CCc1nnn2c1ccc1cc(O)ccc12)Nc1ccccc1C(=O)O please.
0.95

Same question for O=C(CCc1ccc2c(ccc3[nH]ncc32)c1)Nc1ccccc1C(=O)O please.
0.19

* * *

target: Hydroxycarboxylic acid receptor 2 (Rattus norvegicus); experiment: Agonist activity at rat GPR109A expressed by [35S]GTPgammaS binding assay
Sequence (Q80Z39 whole entry): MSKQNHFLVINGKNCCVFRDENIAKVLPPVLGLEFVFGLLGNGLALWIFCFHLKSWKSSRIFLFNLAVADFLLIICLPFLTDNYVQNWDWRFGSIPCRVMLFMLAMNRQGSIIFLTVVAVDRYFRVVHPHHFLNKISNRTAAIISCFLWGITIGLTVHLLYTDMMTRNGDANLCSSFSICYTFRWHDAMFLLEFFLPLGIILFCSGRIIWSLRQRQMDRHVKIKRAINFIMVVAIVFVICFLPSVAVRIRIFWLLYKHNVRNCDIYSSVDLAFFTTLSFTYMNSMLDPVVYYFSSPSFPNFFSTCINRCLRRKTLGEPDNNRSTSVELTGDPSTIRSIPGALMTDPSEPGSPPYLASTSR
Value Type: EC50 (µM)
Respond with the bare value in µM.

Entry O=C(CCc1cnn2c1CCc1cc(O)ccc1-2)Nc1ccccc1C(=O)O has what EC50?
2.7

* * *

experiment: Cmax in C57BL/6 mouse at 2 mg/kg, po; assay type: ADME, organism-based; parameters: dose 2 mg/kg, route oral; settings: in vivo
Value Type: Cmax (nM)
Respond with the bare value in nM.

# annotated cases, reported Cmax shown
O=C(CCc1noc2c1CCc1cc(O)ccc1-2)Nc1ccccc1C(=O)O: 620
O=C(CCc1[nH]nc2c1CCc1cc(O)ccc1-2)Nc1ccccc1C(=O)O: 73
O=C(CCc1cnn2c1CCc1cc(O)ccc1-2)Nc1ccccc1C(=O)O: 350

Entry O=C(CCc1cn2c(n1)sc1cc(O)ccc12)NC1=C(C(=O)O)CCCC1 has what Cmax?
3800

Same question for O=C(CCc1ccc2c(ccc3[nH]ncc32)c1)Nc1ccccc1C(=O)O please.
3900

Same question for Cn1c(=O)c2cc(O)ccc2c2ccc(CCC(=O)Nc3ccccc3C(=O)O)cc21 please.
1260

Same question for O=C(CCc1nnn2c1ccc1cc(O)ccc12)Nc1ccccc1C(=O)O please.
170

Same question for O=C(CCc1noc2c1CCc1cc(O)ccc1-2)NC1=C(C(=O)O)CCC1 please.
1830

* * *

biological target: Cytochrome P450 2C9 (Homo sapiens, UniProt P11712); test: Inhibition of CYP2C9 in human liver microsomes using diclofenac substrate; type: ADME, Microsome
Sequence (P11712 whole entry): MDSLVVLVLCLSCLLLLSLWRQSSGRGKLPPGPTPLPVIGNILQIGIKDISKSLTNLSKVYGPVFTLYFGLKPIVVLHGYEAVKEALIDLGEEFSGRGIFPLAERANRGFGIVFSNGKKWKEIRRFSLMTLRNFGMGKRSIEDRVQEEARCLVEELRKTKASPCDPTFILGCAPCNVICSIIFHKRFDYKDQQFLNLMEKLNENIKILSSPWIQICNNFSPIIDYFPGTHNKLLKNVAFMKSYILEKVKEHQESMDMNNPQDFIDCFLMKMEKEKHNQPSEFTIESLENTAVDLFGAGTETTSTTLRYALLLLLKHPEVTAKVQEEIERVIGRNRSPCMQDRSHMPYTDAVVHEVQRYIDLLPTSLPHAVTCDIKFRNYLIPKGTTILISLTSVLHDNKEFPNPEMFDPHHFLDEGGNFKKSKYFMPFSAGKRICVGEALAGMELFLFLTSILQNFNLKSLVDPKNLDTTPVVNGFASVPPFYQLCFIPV
Entries and their IC50 values follow.
The answer consists of two parts: a number and, after it, its unit.

# annotated cases, reported IC50 shown
O=C(CCc1noc2c1ccc1c(Cl)c(O)ccc12)NC1=C(C(=O)O)CCCC1: 1500 nM
O=C(CCc1noc2c1ccc1cc(O)ccc12)Nc1ccccc1C(=O)O: 990 nM

Please find the next compound below.
Entry O=C(CCc1cn2c(n1)sc1ccccc12)Nc1ccccc1C(=O)O has what IC50?
4400 nM

* * *

test system: Rattus norvegicus; experiment: Toxicity in Sprague-Dawley rat assessed as plasma concentration at threshold dose for vasodilation at 100 mg/kg, sc; assay type: organism-based; design: dose 100 mg/kg, route subcutaneous; conditions: in vivo, read-out: Activity
Value Type: concentration (µM)
Respond with the bare value in µM.

Entry O=C(CCc1cnn2c1CCc1cc(O)ccc1-2)Nc1ccccc1C(=O)O has what concentration?
500

* * *

Entries and their clearance values follow.
experiment: Plasma clearance in C57BL/6 mouse at 1 mg/kg, iv or 2 mg/kg, po; format: ADME, organism-based
Respond with the bare value in mL/min/kg.

O=C(CCc1cnn2c1CCc1cc(O)ccc1-2)Nc1ccccc1C(=O)O: 12

Entry O=C(CCc1noc2c1CCc1cc(O)ccc1-2)NC1=C(C(=O)O)CCC1 has what clearance?
4.1

Same question for O=C(CCc1[nH]nc2c1CCc1cc(O)ccc1-2)Nc1ccccc1C(=O)O please.
2.4

* * *

assay: Therapeutic index, ratio of plasma concentration at threshold dose for vasodilation to IC50 for free fatty acid reduction in Sprague-Dawley rat; type: cell-free; settings: read-out: TI
Value Type: selectivity ratio
Enter a number only.

Entry O=C(CCc1cnn2c1CCc1cc(O)ccc1-2)Nc1ccccc1C(=O)O has what selectivity ratio?
8

* * *

biological target: Cytochrome P450 2C8 (Homo sapiens, UniProt P10632); assay: Inhibition of CYP2C8 in human liver microsomes using montelukast substrate; format: ADME, Microsome
Sequence (P10632 whole entry): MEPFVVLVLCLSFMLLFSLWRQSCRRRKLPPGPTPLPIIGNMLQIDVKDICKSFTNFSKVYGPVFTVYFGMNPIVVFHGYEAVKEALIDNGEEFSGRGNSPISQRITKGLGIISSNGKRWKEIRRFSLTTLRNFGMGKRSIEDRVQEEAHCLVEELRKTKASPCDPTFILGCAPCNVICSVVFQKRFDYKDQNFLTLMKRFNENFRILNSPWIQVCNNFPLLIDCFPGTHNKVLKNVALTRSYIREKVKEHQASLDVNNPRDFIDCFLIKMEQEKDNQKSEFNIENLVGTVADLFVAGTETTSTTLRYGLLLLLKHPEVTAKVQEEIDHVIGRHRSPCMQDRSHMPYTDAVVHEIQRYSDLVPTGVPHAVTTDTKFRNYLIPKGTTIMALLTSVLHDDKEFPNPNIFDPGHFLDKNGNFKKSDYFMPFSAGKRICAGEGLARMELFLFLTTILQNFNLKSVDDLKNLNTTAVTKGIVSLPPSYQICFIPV
Entries and their pIC50 values follow.
// pIC50 here means minus log10 of the molar concentration (mol/L)

# annotated cases, reported pIC50 shown
O=C(CCc1noc2c1CCc1cc(O)ccc1-2)NC1=C(C(=O)O)CCC1: 4.33
O=C(CCc1noc2c1CCc1cc(O)ccc1-2)Nc1ccccc1C(=O)O: 5.23
O=C(CCc1[nH]nc2c1ccc1cc(O)ccc12)Nc1ccccc1C(=O)O: 5.24

Entry O=C(CCc1cnn2c1CCc1cc(O)ccc1-2)Nc1ccccc1C(=O)O has what pIC50?
4.96

Same question for O=C(CCc1noc2c1CCc1cc(O)ccc1-2)NC1=C(C(=O)O)CCCC1 please.
4.36

Same question for O=C(CCc1noc2c1Cc1cc(O)ccc1-2)Nc1ccccc1C(=O)O please.
4.70

* * *

target: Cytochrome P450 2C9 (Homo sapiens, UniProt P11712); assay: Inhibition of CYP2C9 in human liver microsomes using diclofenac substrate; type: ADME, Microsome
Value Type: pIC50
// pIC50 here means minus log10 of the molar concentration (mol/L)

O=C(CCc1nnn2c1ccc1cc(O)ccc12)Nc1ccccc1C(=O)O: 5.82
O=C(CCc1cn2c(n1)sc1cc(O)ccc12)NC1=C(C(=O)O)CCC1: 4.92
O=C(CCc1noc2c1CCc1cc(O)ccc1-2)NC1=C(C(=O)O)CCCC1: 4.96

Please find the next compound below.
Entry O=C(CCc1[nH]nc2c1CCc1cc(O)ccc1-2)Nc1ccccc1C(=O)O has what pIC50?
4.59

* * *

test system: Rattus norvegicus; test: Plasma concentration in Sprague-Dawley rat at 1 mg/kg, sc; conditions: read-out: Cp, in vivo
Value Type: concentration
The answer consists of two parts: a number and, after it, its unit.

Entry O=C(O)c1cccnc1 has what concentration?
7.6 µM

* * *

tested on: Rattus norvegicus; test: Toxicity in Sprague-Dawley rat assessed as plasma concentration at threshold dose for vasodilation at 1 mg/kg, sc; settings: read-out: Activity, in vivo
Value Type: concentration (µM)
Respond with the bare value in µM.

Entry O=C(O)c1cccnc1 has what concentration?
7.6

* * *

assay: Half life in C57BL/6 mouse at 1 mg/kg, iv or 2 mg/kg, po; type: ADME, organism-based; conditions: in vivo
Entries and their half-life values follow.
Respond with the bare value in h.

Cn1c(=O)c2cc(O)ccc2c2ccc(CCC(=O)Nc3ccccc3C(=O)O)cc21: 2.3

Entry O=C(CCc1cnn2c1CCc1cc(O)ccc1-2)Nc1ccccc1C(=O)O has what half-life?
2.9

Same question for O=C(CCc1ccc2c(ccc3[nH]ncc32)c1)Nc1ccccc1C(=O)O please.
3.5

Same question for O=C(CCc1[nH]nc2c1CCc1cc(O)ccc1-2)Nc1ccccc1C(=O)O please.
2.1

Same question for O=C(CCc1noc2c1CCc1cc(O)ccc1-2)Nc1ccccc1C(=O)O please.
1.8

Same question for O=C(CCc1cn2c(n1)sc1cc(O)ccc12)NC1=C(C(=O)O)CCCC1 please.
4.4

Same question for O=C(CCc1nnn2c1ccc1cc(O)ccc12)Nc1ccccc1C(=O)O please.
1.7

Same question for O=C(CCc1noc2c1CCc1cc(O)ccc1-2)NC1=C(C(=O)O)CCC1 please.
1.9

* * *

Entries and their Vd values follow.
test: Volume of distribution at steady state in C57BL/6 mouse at 1 mg/kg, iv or 2 mg/kg, po; type: ADME, organism-based; details: in vivo, read-out: Vdss
Respond with the bare value in L/kg.

Entry O=C(CCc1noc2c1CCc1cc(O)ccc1-2)NC1=C(C(=O)O)CCC1 has what Vd?
0.2

Same question for O=C(CCc1cnn2c1CCc1cc(O)ccc1-2)Nc1ccccc1C(=O)O please.
1.8

Same question for O=C(CCc1cn2c(n1)sc1cc(O)ccc12)NC1=C(C(=O)O)CCCC1 please.
0.32

Same question for Cn1c(=O)c2cc(O)ccc2c2ccc(CCC(=O)Nc3ccccc3C(=O)O)cc21 please.
0.26
